All values here come from the supplement of paper PMC9112550.

system: Escherichia coli TOP10; assay: shrunken log2 fold change of peptide-encoding DNA abundance (4.5 h post-induction vs induction); higher = less antimicrobial activity (less host growth inhibition); settings: time post-induction: 4.5 h; library: site-saturation at positions 5, 18, 19, 20

{"Construct Sequence": "RRIRSRPPRLPRPRPRPITVPRP", "shrunken log2 fold change": -0.132}
{"Construct Sequence": "RRIRERPPRLPRPRPRPSQDPRP", "shrunken log2 fold change": -0.137}
{"Construct Sequence": "RRIRFRPPRLPRPRPRPVNHPRP", "shrunken log2 fold change": -0.384}
{"Construct Sequence": "RRIRDRPPRLPRPRPRPEWNPRP", "shrunken log2 fold change": 0.546}
{"Construct Sequence": "RRIRYRPPRLPRPRPRPIDKPRP", "shrunken log2 fold change": -0.00865}
{"Construct Sequence": "RRIRFRPPRLPRPRPRPYLIPRP", "shrunken log2 fold change": -0.417}
{"Construct Sequence": "RRIRTRPPRLPRPRPRPAIPPRP", "shrunken log2 fold change": -0.212}
{"Construct Sequence": "RRIRCRPPRLPRPRPRPVAIPRP", "shrunken log2 fold change": -0.156}
{"Construct Sequence": "RRIRHRPPRLPRPRPRPDIDPRP", "shrunken log2 fold change": -0.235}
{"Construct Sequence": "RRIRFRPPRLPRPRPRPWYRPRP", "shrunken log2 fold change": -0.0778}
{"Construct Sequence": "RRIRRRPPRLPRPRPRPENIPRP", "shrunken log2 fold change": -0.468}
{"Construct Sequence": "RRIRSRPPRLPRPRPRPWEYPRP", "shrunken log2 fold change": -0.0607}
{"Construct Sequence": "RRIRRRPPRLPRPRPRPLKVPRP", "shrunken log2 fold change": 0.0966}
{"Construct Sequence": "RRIRERPPRLPRPRPRPWCGPRP", "shrunken log2 fold change": -0.245}
{"Construct Sequence": "RRIRIRPPRLPRPRPRPMNSPRP", "shrunken log2 fold change": -0.191}
{"Construct Sequence": "RRIRFRPPRLPRPRPRPGWLPRP", "shrunken log2 fold change": 0.129}
{"Construct Sequence": "RRIRNRPPRLPRPRPRPRMTPRP", "shrunken log2 fold change": 0.259}
{"Construct Sequence": "RRIRVRPPRLPRPRPRPDSNPRP", "shrunken log2 fold change": -0.159}
{"Construct Sequence": "RRIRERPPRLPRPRPRPQWCPRP", "shrunken log2 fold change": -0.262}
{"Construct Sequence": "RRIRPRPPRLPRPRPRPQCYPRP", "shrunken log2 fold change": -0.44}
{"Construct Sequence": "RRIRPRPPRLPRPRPRPWDKPRP", "shrunken log2 fold change": -0.629}
{"Construct Sequence": "RRIRTRPPRLPRPRPRPLNRPRP", "shrunken log2 fold change": -0.173}
{"Construct Sequence": "RRIRERPPRLPRPRPRPWKFPRP", "shrunken log2 fold change": -0.301}
{"Construct Sequence": "RRIRSRPPRLPRPRPRPEWTPRP", "shrunken log2 fold change": 0.329}
{"Construct Sequence": "RRIRWRPPRLPRPRPRPKMSPRP", "shrunken log2 fold change": 0.163}
{"Construct Sequence": "RRIRHRPPRLPRPRPRPFLNPRP", "shrunken log2 fold change": -0.169}
{"Construct Sequence": "RRIRKRPPRLPRPRPRPHLYPRP", "shrunken log2 fold change": 0.0535}
{"Construct Sequence": "RRIRGRPPRLPRPRPRPQQVPRP", "shrunken log2 fold change": 0.564}
{"Construct Sequence": "RRIRMRPPRLPRPRPRPETPPRP", "shrunken log2 fold change": 3.09}
{"Construct Sequence": "RRIRLRPPRLPRPRPRPYAHPRP", "shrunken log2 fold change": -0.0393}
{"Construct Sequence": "RRIRQRPPRLPRPRPRPRFTPRP", "shrunken log2 fold change": 0.184}
{"Construct Sequence": "RRIRPRPPRLPRPRPRPQEAPRP", "shrunken log2 fold change": 0.0203}
{"Construct Sequence": "RRIRYRPPRLPRPRPRPKFVPRP", "shrunken log2 fold change": -0.416}
{"Construct Sequence": "RRIRDRPPRLPRPRPRPLRRPRP", "shrunken log2 fold change": 0.463}
{"Construct Sequence": "RRIRLRPPRLPRPRPRPVNFPRP", "shrunken log2 fold change": -0.13}
{"Construct Sequence": "RRIRSRPPRLPRPRPRPVVFPRP", "shrunken log2 fold change": 0.11}
{"Construct Sequence": "RRIRIRPPRLPRPRPRPLGCPRP", "shrunken log2 fold change": -0.0574}
{"Construct Sequence": "RRIRMRPPRLPRPRPRPDWFPRP", "shrunken log2 fold change": 0.235}
{"Construct Sequence": "RRIRARPPRLPRPRPRPILNPRP", "shrunken log2 fold change": -0.273}
{"Construct Sequence": "RRIRVRPPRLPRPRPRPEMNPRP", "shrunken log2 fold change": -0.16}
{"Construct Sequence": "RRIRARPPRLPRPRPRPWHRPRP", "shrunken log2 fold change": 0.00868}
{"Construct Sequence": "RRIRRRPPRLPRPRPRPFYQPRP", "shrunken log2 fold change": -0.46}

----------
tested on: Escherichia coli TOP10; experiment: shrunken log2 fold change of peptide-encoding DNA abundance (4.5 h post-induction vs induction); higher = less antimicrobial activity (less host growth inhibition); conditions: time post-induction: 4.5 h; library: site-saturation at positions 5, 18, 19, 20
shrunken log2 fold change overview
Reported Endpoint: shrunken log2 fold change

{"Construct Sequence": "RRIRQRPPRLPRPRPRPQMIPRP", "Numeric Value": -0.0977}
{"Construct Sequence": "RRIRCRPPRLPRPRPRPRSCPRP", "Numeric Value": -0.159}
{"Construct Sequence": "RRIRYRPPRLPRPRPRPHPGPRP", "Numeric Value": -0.727}
{"Construct Sequence": "RRIRERPPRLPRPRPRPICRPRP", "Numeric Value": 0.0559}
{"Construct Sequence": "RRIRNRPPRLPRPRPRPPFNPRP", "Numeric Value": -0.299}
{"Construct Sequence": "RRIRVRPPRLPRPRPRPNSKPRP", "Numeric Value": -0.506}
{"Construct Sequence": "RRIRYRPPRLPRPRPRPMQWPRP", "Numeric Value": -0.00277}
{"Construct Sequence": "RRIRCRPPRLPRPRPRPDGHPRP", "Numeric Value": -0.00753}
{"Construct Sequence": "RRIRYRPPRLPRPRPRPTCSPRP", "Numeric Value": -0.0789}
{"Construct Sequence": "RRIRPRPPRLPRPRPRPDVEPRP", "Numeric Value": -0.0392}
{"Construct Sequence": "RRIRHRPPRLPRPRPRPRNVPRP", "Numeric Value": -0.00885}
{"Construct Sequence": "RRIRRRPPRLPRPRPRPHAFPRP", "Numeric Value": -0.103}
{"Construct Sequence": "RRIRKRPPRLPRPRPRPHGEPRP", "Numeric Value": 0.428}
{"Construct Sequence": "RRIRKRPPRLPRPRPRPIHCPRP", "Numeric Value": 0.0163}
{"Construct Sequence": "RRIRMRPPRLPRPRPRPQAAPRP", "Numeric Value": 0.87}
{"Construct Sequence": "RRIRRRPPRLPRPRPRPCQNPRP", "Numeric Value": -0.0482}
{"Construct Sequence": "RRIRARPPRLPRPRPRPCYDPRP", "Numeric Value": -0.56}
{"Construct Sequence": "RRIRRRPPRLPRPRPRPNPLPRP", "Numeric Value": 0.269}
{"Construct Sequence": "RRIRPRPPRLPRPRPRPFIYPRP", "Numeric Value": -0.0739}
{"Construct Sequence": "RRIRARPPRLPRPRPRPMCEPRP", "Numeric Value": 0.797}

----------
tested on: Escherichia coli TOP10; assay: shrunken log2 fold change of peptide-encoding DNA abundance (4.5 h post-induction vs induction); higher = less antimicrobial activity (less host growth inhibition); conditions: time post-induction: 4.5 h; library: site-saturation at positions 5, 18, 19, 20;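 further: peptides expressed intracellularly from a pBAD plasmid library in pooled LB shake-flask culture, induced with 0.3% L-arabinose, DNA abundance read by NGS, three biological replicates, DESeq2 with apeglm shrinkage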

{"Construct Sequence": "RRIRSRPPRLPRPRPRPECSPRP", "shrunken log2 fold change": 0.201}
{"Construct Sequence": "RRIRGRPPRLPRPRPRPLCRPRP", "shrunken log2 fold change": 0.598}
{"Construct Sequence": "RRIRRRPPRLPRPRPRPSAFPRP", "shrunken log2 fold change": 1.27}
{"Construct Sequence": "RRIRYRPPRLPRPRPRPLGAPRP", "shrunken log2 fold change": -0.103}
{"Construct Sequence": "RRIRARPPRLPRPRPRPGQQPRP", "shrunken log2 fold change": 0.209}
{"Construct Sequence": "RRIRDRPPRLPRPRPRPRKDPRP", "shrunken log2 fold change": -0.108}
{"Construct Sequence": "RRIRTRPPRLPRPRPRPKYYPRP", "shrunken log2 fold change": -0.54}
{"Construct Sequence": "RRIRIRPPRLPRPRPRPSRYPRP", "shrunken log2 fold change": -0.759}
{"Construct Sequence": "RRIRGRPPRLPRPRPRPFSQPRP", "shrunken log2 fold change": 0.194}
